Biological target: T1, PACAP38 (human, not fully specified)
T1 construct: The background says natural PACAP is alpha-amidated
T1 peptide: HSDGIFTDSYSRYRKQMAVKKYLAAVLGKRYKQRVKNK
Test: SPR (Biacore S200) off-rate ranking, antibody captured from supernatant, single injection of 33.3 nM PACAP38
measure: pKd
In plain terms, pKd is the concentration in mol/L turned into minus its base-10 logarithm.

// solved cases for pKd follow
608C (antibody, V domains shown) VH: EVQLVQSGAEVKKPGSSVKVSCKASGGTFSDLYMHWVRQAPGQGLEWMGLIYPIFADTRYAQKFQGRVTITADESTSTAYMELSSLRSEDTAVYYCAIDQDGSFAYWGQGTLVTVSS VL: DIVMTQSPDSLAVSLGERATINCKSSQSLLDSDGKTYLNWLQQKPGQPPKRLIYWASTRESGVPDRFSGSGSGTDFTLTISSLQAEDVAVYYCWQGTWFDLTFGGGTKVEIKR :: 10.55
609C (antibody, V domains shown) VH: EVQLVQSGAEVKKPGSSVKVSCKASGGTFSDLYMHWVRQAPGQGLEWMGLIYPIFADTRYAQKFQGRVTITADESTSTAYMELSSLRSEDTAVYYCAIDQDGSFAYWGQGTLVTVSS VL: DIVMTQSPDSLAVSLGERATINCKSSQSLLDADGKTYLNWLQQKPGQPPKRLIYWASTRESGVPDRFSGSGSGTDFTLTISSLQAEDVAVYYCWQGTWFDLTFGGGTKVEIKR :: 10.64

The recorded pKd for entry 890C (antibody, human IgG2, kappa, V domains shown, Full chains as named '890C heavy chain' / '890C light chain' (IgG2DASS, kappa); also called anti-PACAP antibody 890C) VH: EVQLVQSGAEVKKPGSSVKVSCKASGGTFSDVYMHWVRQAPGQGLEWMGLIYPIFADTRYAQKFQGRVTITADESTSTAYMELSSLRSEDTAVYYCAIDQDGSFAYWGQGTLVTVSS VL: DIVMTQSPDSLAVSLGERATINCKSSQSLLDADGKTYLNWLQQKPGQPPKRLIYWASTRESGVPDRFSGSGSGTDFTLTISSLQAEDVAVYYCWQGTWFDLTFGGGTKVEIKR equals 10.55

The recorded pKd for entry 605C (antibody, V domains shown) VH: EVQLVQSGAEVKKPGSSVKVSCKASGGTFSDSYMHWVRQAPGQGLEWMGLIYPIFADTRYAQKFQGRVTITADESTSTAYMELSSLRSEDTAVYYCAIDQDGSFAYWGQGTLVTVSS VL: DIVMTQSPDSLAVSLGERATINCKSSQSLLDADGKTYLNWLQQKPGQPPKRLIYWASTRESGVPDRFSGSGSGTDFTLTISSLQAEDVAVYYCWQGTWFDLTFGGGTKVEIK equals 10.77
